Hey, just so you know, these numbers are from paper PMC10812921.

Molecular target: POU2 (OCT2 POU domain) (human, UniProt P09086 175-386)
Sequence: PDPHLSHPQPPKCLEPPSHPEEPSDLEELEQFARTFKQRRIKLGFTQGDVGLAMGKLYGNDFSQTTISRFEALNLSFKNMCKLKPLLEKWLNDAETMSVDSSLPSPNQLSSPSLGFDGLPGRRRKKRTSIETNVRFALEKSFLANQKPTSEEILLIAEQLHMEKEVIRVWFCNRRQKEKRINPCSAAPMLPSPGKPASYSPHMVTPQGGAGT
Experiment: EMSA-SELEX-seq; no BOB1; 20 mM Tris-HCl pH 7.6, 140 mM NaCl, 10% glycerol, 0.5 mM EDTA, 0.05% Triton X-100, 0.1 mg/mL BSA, 0.1 mg/mL poly(dI-dC), 5 mM DTT, room temperature, 20 min; high values mean tight binding
Conditions: protein: recombinant; dsDNA, one strand shown
Can you tell me binding signal for the items I'm about to list?

Param item: ATGAGAAC ; param system: POU2 (OCT2 POU domain) (human, UniProt P09086 175-386); output binding signal: 0.0552 % of ANNNNAAN 8-mers

Assay POU2 (OCT2 POU domain) (human, UniProt P09086 175-386), sample AGCGGAAG , binding signal read: 0.0196 % of ANNNNAAN 8-mers

Readout binding signal for ACAACAAG , test system POU2 (OCT2 POU domain) (human, UniProt P09086 175-386), was 0.0167 % of ANNNNAAN 8-mers

Sample AAAGGAAC , system: POU2 (OCT2 POU domain) (human, UniProt P09086 175-386). Its binding signal is 0.0443 % of ANNNNAAN 8-mers

For ACTCAAAA on POU2 (OCT2 POU domain) (human, UniProt P09086 175-386), measured binding signal was 0.0339 % of ANNNNAAN 8-mers

Value (binding signal, POU2 (OCT2 POU domain) (human, UniProt P09086 175-386)) for record AATGTAAG = 0.106 % of ANNNNAAN 8-mers

Form: item AACCTAAT ; test system POU2 (OCT2 POU domain) (human, UniProt P09086 175-386); binding signal: 0.0875 % of ANNNNAAN 8-mers

ACGGGAAC on POU2 (OCT2 POU domain) (human, UniProt P09086 175-386) gives binding signal = 0.027 % of ANNNNAAN 8-mers

Entry ACCAAAAA : binding signal on POU2 (OCT2 POU domain) (human, UniProt P09086 175-386) = 0.0328 % of ANNNNAAN 8-mers

# value of binding signal, POU2 (OCT2 POU domain) (human, UniProt P09086 175-386), item AGAGTAAA = 0.0386 % of ANNNNAAN 8-mers

POU2 (OCT2 POU domain) (human, UniProt P09086 175-386) binding signal of ACTCTAAA is 0.0299 % of ANNNNAAN 8-mers

Lab entry: POU2 (OCT2 POU domain) (human, UniProt P09086 175-386) assay, sequence AGAAGAAG , binding signal = 0.0547 % of ANNNNAAN 8-mers

For AAATAAAC on POU2 (OCT2 POU domain) (human, UniProt P09086 175-386), measured binding signal was 0.119 % of ANNNNAAN 8-mers

Field binding signal (POU2 (OCT2 POU domain) (human, UniProt P09086 175-386)), entry ATATTAAC : 0.189 % of ANNNNAAN 8-mers

ACAGAAAC on POU2 (OCT2 POU domain) (human, UniProt P09086 175-386) gives binding signal = 0.0259 % of ANNNNAAN 8-mers

Form field binding signal for item AGGTCAAA on POU2 (OCT2 POU domain) (human, UniProt P09086 175-386): 0.0403 % of ANNNNAAN 8-mers

Summary: ACGGAAAG , POU2 (OCT2 POU domain) (human, UniProt P09086 175-386), binding signal = 0.0443 % of ANNNNAAN 8-mers

For AAATGAAG on POU2 (OCT2 POU domain) (human, UniProt P09086 175-386), measured binding signal was 0.188 % of ANNNNAAN 8-mers

// binding signal (POU2 (OCT2 POU domain) (human, UniProt P09086 175-386)) for AATGAAAT = 0.157 % of ANNNNAAN 8-mers

Here ACTCAAAC was tested on POU2 (OCT2 POU domain) (human, UniProt P09086 175-386), and its binding signal came to 0.027 % of ANNNNAAN 8-mers

The reported POU2 (OCT2 POU domain) (human, UniProt P09086 175-386) binding signal of AAGGCAAA is 0.117 % of ANNNNAAN 8-mers

The recorded binding signal with POU2 (OCT2 POU domain) (human, UniProt P09086 175-386) for AACACAAC was 0.019 % of ANNNNAAN 8-mers
